Tested on: HL-60
method.description: Cytotoxicity against human HL60 cells after 72 hrs by MTT assay
Type: functional, cell-based
run.parameters: HL-60, 72 h
measurement.name: IC50 (µM)
Provide the reading as a plain figure in µM.

Supply measured IC50 of C[C@@H]1O[C@@H](O[C@H]2[C@H](O[C@H]3CC[C@]4(C)[C@H]5CC=C6[C@@H]7CC(C)(C)CC[C@]7(C(=O)O)CC[C@@]6(C)[C@]5(C)CC[C@H]4C3(C)C)OC[C@H](O[C@@H]3O[C@H](CO)[C@@H](O)[C@H](O)[C@H]3O)[C@@H]2O)[C@H](O)[C@H](O[C@@H]2O[C@H](CO)[C@@H](O[C@@H]3O[C@H](CO)[C@@H](O)[C@H](O)[C@H]3O)[C@H](O)[C@H]2O)[C@H]1O in your reply. 3.1

Supply measured IC50 of C[C@@H]1O[C@@H](O[C@H]2[C@H](O[C@H]3CC[C@]4(C)[C@H]5CC=C6[C@@H]7CC(C)(C)CC[C@]7(C(=O)O)CC[C@@]6(C)[C@]5(C)CC[C@H]4C3(C)C)OC[C@H](O)[C@@H]2O)[C@H](O)[C@H](O[C@@H]2O[C@H](CO)[C@@H](O[C@@H]3O[C@H](CO)[C@@H](O)[C@H](O)[C@H]3O)[C@H](O)[C@H]2O)[C@H]1O in your reply. 3.5

Supply measured IC50 of C[C@@H]1O[C@@H](O[C@H]2[C@H](O[C@H]3CC[C@]4(C)[C@H]5CC=C6[C@@H]7CC(C)(C)CC[C@]7(C(=O)O)CC[C@@]6(C)[C@]5(C)CC[C@H]4C3(C)C)OC[C@@H](O)[C@@H]2O)[C@H](O)[C@H](O[C@@H]2OC[C@@H](O)[C@H](O)[C@H]2O)[C@H]1O in your reply. 4.5

These measurements were taken from ChEMBL document CHEMBL2390836.
